Parameter: T/C. Scope: all listed entries.
test system: L1210 leukemia ip in BDF1 mice, survival T/C; assay: NCI In Vivo Anticancer Drug Screen. Data for tumor model L1210 Leukemia (intraperitoneal) in B6D2F1 (BDF1) mice; settings: endpoint: mean survival time; dose: 100.0 mg/kg/injection; schedule: Q04DX002 (ip); vehicle: Klucel (hydroxypropylcellulose) (HPC); higher = longer survival
Toxic doses and inconclusive results are not listed.

Below: 8 compounds and their reported T/C.
compound=COC(=O)C(N)=O value_measured="100 % of control"
compound="CCN(CC)C(=S)SC(C)C(=O)OC (configuration not stated)" value_measured="96 % of control"
compound=CN(Cc1ccccc1)C(=O)C(Cl)Cl value_measured="103 % of control"
compound=O=C(O)/C=C/c1ccc([N+](=O)[O-])s1 value_measured="90 % of control"
compound="CCOC(=O)C1C(=O)CC(=O)C(C(=O)OCC)C1c1cc(OC)c(OC)c(OC)c1 (configuration not stated)" value_measured="91 % of control"
compound=N=Nc1c2ccccc2c2nc3c(N)[nH]nc(N)c3nc12 value_measured="107 % of control"
compound=COc1cc(OC)c(NC(=O)Nc2cc([N+](=O)[O-])ccc2C)cc1Cl value_measured="97 % of control"
compound=O=c1[nH]c2c(c(=O)[nH]1)CCCCC2 value_measured="95 % of control"

### Prompt Return value of T/C for input O=C(O)c1cc(Br)cc(I)c1Cl , no commentary.
### Response 102 % of control

### Prompt Return value of T/C for input O=C(O)Cc1n[nH]c(=O)c2ccccc12 , no commentary.
### Response 93 % of control

### Prompt Return value of T/C for input O=[N+]([O-])c1cc(S(=O)(=O)c2ccc(S)c([N+](=O)[O-])c2)ccc1S , no commentary.
### Response 89 % of control

### Prompt Return value of T/C for input COc1ccc(/C=C2\N=C(c3cc(OC)c(OC)c(OC)c3)OC2=O)cc1OC , no commentary.
### Response 123 % of control

----------
Parameter: T/C. Scope: all listed entries.
tested on: L1210 leukemia ip in BDF1 mice, survival T/C; assay: NCI In Vivo Anticancer Drug Screen. Data for tumor model L1210 Leukemia (intraperitoneal) in B6D2F1 (BDF1) mice; settings: endpoint: mean survival time; dose: 200.0 mg/kg/injection; schedule: Q04DX002 (ip); vehicle: saline with Tween-80; higher = longer survival
Toxic doses and inconclusive results are not listed.

### Prompt Return value of T/C for input FC(F)(F)c1cccc(NC2=NCCS2)c1 , no commentary.
### Response 115 % of control

### Prompt Return value of T/C for input O=C(O)CC1CC2CCC1C2 (stereo not drawn) , no commentary.
### Response 97 % of control

### Prompt Return value of T/C for input Cc1cccc(C)c1NC(=S)NNC(=O)c1ccncc1 , no commentary.
### Response 96 % of control

----------
test system: L1210 leukemia ip in BDF1 mice, survival T/C; test: NCI In Vivo Anticancer Drug Screen. Data for tumor model L1210 Leukemia (intraperitoneal) in B6D2F1 (BDF1) mice; conditions: endpoint: mean survival time; dose: 50.0 mg/kg/injection; schedule: Q01DX009 (ip); vehicle: saline; higher = longer survival
Toxic doses and inconclusive results are not listed.
EXPERIMENTAL ENDPOINT: T/C

Below: 5 molecules and their reported T/C.
molecule="CC1OCC(C)(CO)CO1 (stereo unspecified)" experimental_endpoint=T/C value_measured="102 % of control"
molecule="COCC1OC(OC2OCC3OC4(OCC(O)(C(C)OC)C5OCOC54)OC3C2OC)C(OC)C(O)C1OC1OC(C)C(OC)C(OC2OC(C)C3OC4(CC(O)C(OC5CC(OC6CC(C)([N+](=O)[O-])C(OC)C(C)O6)C(OC(=O)c6c(C)c(Cl)c(O)c(Cl)c6OC)C(C)O5)C(C)O4)OC3(C)C2O)C1O (stereo unspecified)" experimental_endpoint=T/C value_measured="106 % of control"
molecule=O=C1C=CC(=C(c2ccccc2)c2ccccc2)C=C1 experimental_endpoint=T/C value_measured="87 % of control"
molecule=OCCCCc1nccc2c1[nH]c1ccccc12 experimental_endpoint=T/C value_measured="88 % of control"
molecule=CC(=O)/C=C/c1ccc2c(c1)OCO2 experimental_endpoint=T/C value_measured="96 % of control"

### Prompt Return value of T/C for input c1ccc2c(c1)C[N+]1(Cc3ccccc3-2)CC12CCCCC2 , no commentary.
### Response 100 % of control

### Prompt Return value of T/C for input N\C([S-])=N/N=C\C(=N/N=C(\N)[S-])C(O)C(O)C(O)CO.[Pt+2] (stereo unspecified) , no commentary.
### Response 91 % of control

### Prompt Return value of T/C for input COc1cccc(NN)c1 , no commentary.
### Response 100 % of control

### Prompt Return value of T/C for input Cn1ncc(=O)[nH]c1=O , no commentary.
### Response 100 % of control

### Prompt Return value of T/C for input CC(C)=CCC/C(C)=C/CN1C(=O)CN(C)C1=O , no commentary.
### Response 98 % of control

### Prompt Return value of T/C for input O=S1(=O)C=C(Cl)C(Cl)C1 (stereo unspecified) , no commentary.
### Response 86 % of control

### Prompt Return value of T/C for input CCCCN1CCNCC1 , no commentary.
### Response 95 % of control

### Prompt Return value of T/C for input S=C(S)N1CCN(C(=S)S)CC1 , no commentary.
### Response 103 % of control

### Prompt Return value of T/C for input CC(C)=CCC(=O)OC(Cc1ccccc1)(c1ccccc1)C(C)CN(C)C (stereo unspecified) , no commentary.
### Response 98 % of control

### Prompt Return value of T/C for input CCCCCCCCCC(=O)N1CCOCC1 , no commentary.
### Response 113 % of control
